# TEST_SUMMARY: MAD study, two additional single-dose cohorts: pharmacokinetics
# Assay type: in vivo, human
# CONDITION_NOTES: human, plasma, oral, 120 mg, 120 mg single dose, fed moderate fat meal; read-out: AUC(0-72), Mean
TEST_READOUT: AUC(0-t)

[
  {
    "SMILES_RECORD": "CC(=O)c1nn(CC(=O)N2[C@H](C(=O)Nc3nc(Br)ccc3C)C[C@@]3(C)C[C@@H]23)c2ccc(-c3cnc(C)nc3)cc12",
    "TEST_READOUT": "AUC(0-t)",
    "MEASURED": "1490 ng·h/mL"
  }
]
